System: Hs-578T
Assay: NCI tumour cell line growth inhibition, 48 h
The source made the active and inactive calls. No stated cut-off is given here; in the data, active = GI50 up to about 1.1 µM and inactive = higher.
measurement_type: GI50

* COC(=O)NCCc1n[nH]c2c1C(=O)C=C(Nc1ccccc1)C2=O | 36.7 µM (inactive)
* COc1ccc2cc3c4cc5c(cc4cc[n+]3cc2c1OC)OCO5 | 3.26 µM (inactive)

In: Which measured GI50 value corresponds to COC(=O)C(F)C(Br)C(=O)OC (stereo not drawn) ?
Out: 16.6 µM (inactive)

In: Similarly, COc1cccc2c1C(=O)C=CC2=O ?
Out: 15.4 µM (inactive)

In: Now consider CN(C(=O)Cc1cc(Cl)c(Cl)cc1NC(=O)CN)[C@H]1CCCC[C@@H]1N1CCCC1 and answer again.
Out: 23.1 µM (inactive)

In: Then this compound: O=C1/C(=C/c2cccc(F)c2)CCCc2ccccc21
Out: 13.2 µM (inactive)

In: Repeat with O=C(NCc1cccc(C(F)(F)F)c1)c1cc2sccc2nc1C(F)(F)F
Out: 26.9 µM (inactive)

The origin of these recorded values is ChEMBL document CHEMBL1201862.
